Form: system (AChE (Electrophorus electricus)), quantity (pIC50), values below.
API: returns pIC50 as number; meaning -log10 of concentration in mol/L.

# molecule COc1cc2cc(C(C)=O)c(=O)oc2cc1O [Compound 6] ; its pIC50 = 3.40

# molecule COc1cc2cc(C(C)=O)c(=O)oc2cc1OS(=O)(=O)c1cc(Cl)c(Cl)cc1Cl [Compound 6h] ; its pIC50 = 3.56

# molecule COc1cc2ccc(=O)oc2cc1OS(=O)(=O)c1ccc(Cl)cc1 [Compound 4d] ; its pIC50 = 3.65

# molecule COc1cc2ccc(=O)oc2cc1OS(=O)(=O)c1cccs1 [Compound 4i] ; its pIC50 = 3.36

# molecule COc1cc2ccc(=O)oc2cc1OS(=O)(=O)c1ccc([N+](=O)[O-])cc1 [Compound 4g] ; its pIC50 = 3.45

# molecule COc1cc2cc(-c3ccc(F)cc3)c(=O)oc2cc1OS(=O)(=O)c1ccc([N+](=O)[O-])cc1 [Compound 5g] ; its pIC50 = 3.58

# molecule COc1cc2cc(-c3ccc(F)cc3)c(=O)oc2cc1OS(=O)(=O)c1ccc(C(F)(F)F)cc1 [Compound 5f] ; its pIC50 = 3.62

# molecule COc1cc2ccc(=O)oc2cc1O [Compound 4, 7-hydroxy-6-methoxy-2H-chromen-2-one] ; its pIC50 = 3.26

# molecule COc1cc2ccc(=O)oc2cc1OS(=O)(=O)c1ccc(Br)cc1 [Compound 4e] ; its pIC50 = 3.46

# molecule COc1cc2cc(C(C)=O)c(=O)oc2cc1OS(=O)(=O)c1ccc(Cl)cc1 [Compound 6d] ; its pIC50 = 3.45

# molecule COc1cc2cc(-c3ccc(F)cc3)c(=O)oc2cc1OS(=O)(=O)c1ccccc1 [Compound 5a] ; its pIC50 = 4.02

# molecule COc1cc2cc(-c3ccc(F)cc3)c(=O)oc2cc1OS(=O)(=O)c1cc(Cl)c(Cl)cc1Cl [Compound 5h] ; its pIC50 = 3.70

# molecule COc1cc2ccc(=O)oc2cc1OS(=O)(=O)c1ccccc1 [Compound 4a] ; its pIC50 = 3.37

# molecule COc1cc2cc(-c3ccc(F)cc3)c(=O)oc2cc1OS(=O)(=O)c1ccc(Br)cc1 [Compound 5e] ; its pIC50 = 3.85
